Numbers sourced from the supplement of paper PMC9170038.

System: K4 kissing-loop RNA reporter
Assay: apparent KD of K4 kissing-loop reporter; higher = weaker reporter binding
Conditions: Eterna round: R107; input ligand: arginine 13.2 mM
Where apparent KD of K4 kissing-loop reporter equals or exceeds 200 nM, the correct label is condition met; where it does not, the label is condition not met.

Previously resolved entries follow.
| input.sequence | target.desc | label |
| --- | --- | --- |
| AGCAGCAAAUCCUAGUGAUGUUAGGAUAUGUAGGAUAUCGGGAUACCGAGAAGGACAGAAGGAGGAGUGAUGUUCCUAAGCUGCA [FmnAX 24 #DoubleAptamer #DoubleK4 #SwitchBubble] | K4 kissing-loop RNA reporter | condition not met |
| ACGAUCAUGGCAGGAUAUACGAAUGCAUUAGGGCUGCCAGUGAUGUUGGUGGACCGAGGACGUAGAGUAGAAGGGCCGACUUAAA [Leonmain] | K4 kissing-loop RNA reporter | condition not met |
| AUGCGCGCGGCGGCCGCCACUCGCAUGAGAGUGAUGUUCUCGCCGUGCCCGUAAGGGUGCGGUGUGAGGACCGGGCCGGGCUGCG [#2 Same State - Tryptophan B Attempt #20 (HarryS)] | K4 kissing-loop RNA reporter | condition not met |
| UAAUAAAUUCCAGCUGUAUCACUCUUCGAAGGAGCGGACGAAAGUCCAGGUAGGUCGCGAAGAGUGAUGUUCUUUGCGGCGCUGG [Omei KL Arginine A Exc A v6] | K4 kissing-loop RNA reporter | condition not met |

Please tell me: is the sequence UUUGGUUGUGGUGUUGAUUAGGGAGCGGAAGGAGCGCCGAGGAGGGCAGGUAGGUCGCCGGAAUGUAGUGAUGUUGCAUAGAGGU [ExArgA.Ad] at or over 200 nM in terms of apparent KD of K4 kissing-loop reporter? condition met

Please give the result for AUGUGGAGCGACGUUUAGAGAAACCGGGAAGGAGCGCGGAUAACCGCAGGUAGGUCGCCUGGUUGCCAGUGAUGUUGGCGACGUG [Exclusion Arg A GF 25] too. condition met

###

System: MS2 coat protein
Experiment: apparent KD of MS2 coat protein; higher = weaker reporter binding
Details: Eterna round: R107; input ligand: tryptophan 2.4 mM
Where apparent KD of MS2 coat protein equals or exceeds 20 nM, the correct label is Met; where it does not, the label is Not met.

Please tell me: is the sequence ACAUGAGGAUCACCCAUGUUUGAUGUUCCUCGAGGACCGGUACGGCCGCCACUCGAACGAGUGGCGCGCGCGCGCGCGCGCGCGC [aQa] at or over 20 nM in terms of apparent KD of MS2 coat protein? Not met

###

Tested on: MS2 coat protein
Experiment: apparent KD of MS2 coat protein; designed switch direction (-1 OFF switch, 1 ON switch): 1; higher = weaker reporter binding
Details: input ligand: none
Where apparent KD of MS2 coat protein equals or exceeds 300 nM, the correct label is Fulfilled; where it does not, the label is Not fulfilled.

Previously resolved entries follow.
| input.sequence | label |
| --- | --- |
| GCCAACUCAUGAGGAUAUGGCACCUUAAUGGUGCCAGAAGGCAUGUCUAUUGACAUGAGGAUCACCCAUGUAUUAUUGUUGGCA [Fiskers NG1ss - 25] (Eterna round: R96, puzzle: Same State NG 1) | Fulfilled |
| AUAAAACAUGAGGAUCACCCAUGUCAACAAAGUCGAGGAUAUGGGCAAAUAAAAUAAGAACCAGAAGGCGAAUAAC [salish99_SS1_r3_003] (Eterna round: R96, puzzle: Same State 1) | Not fulfilled |
| UGAAUAGUUACAGGAUAUGAGCCGAAAAUUGGGUCAGAAGGGUGGGUGUUUUGCGCUAUGUGCUACAUGAGGAUCACCCAUGUU [SameState NG1 #34] (Eterna round: R96, puzzle: Same State NG 1) | Fulfilled |
| GCGAGCGUACUUGCAGACAUGAGGAUCACCCAUGUAAAUGGGAAGGAUAUGGUACCGUUUCGGUACCAGAAGGUCCUAAGUGAG [JL SSNG3 1.49] (Eterna round: R96, puzzle: Same State NG 3) | Fulfilled |

Shift focus to the following entry.
Please tell me: is the sequence CUAGGAGGAUGAGGAUAUGCAGAGGAUCACCCUGUAGAAGGCAAGAGAUGAGGAUAUGCAGAGGAUCACCCUGUAGAAGGCAAC [pwkr ssNG DX.1] (Eterna round: R96, puzzle: Same State NG 1) at or over 300 nM in terms of apparent KD of MS2 coat protein? Not fulfilled

###

System: MS2 coat protein
Experiment: apparent KD of MS2 coat protein; higher = weaker reporter binding
Details: Eterna round: R101; input ligand: none
observation.type: apparent KD of MS2 coat protein (µM)
A number alone suffices; assume µM.

Please review the following examples before continuing.
| input.sequence | unit.abbrev | observed.measurement |
| --- | --- | --- |
| CUUACUUUGUAGAAGGGUGACAUGAGGAUCACCCAUGUGCGUGGCCUGAAAGACCAGGGUACGCCACAGGAUAUACAAAGUAAG [Esatatina] (puzzle (switch architecture): Inverted Same State NG 2) | µM | 0.0153 |
| CACCUAAAUCCUAGAGGAUCACCCUAGGAUAUCACCGUCGAGGUGCCAUAAUGGCACCUCGACGGUGAGAAGGAGGGUAAAUAA [#SharedSequence - SLExNG3: 9] (puzzle (switch architecture): Small Loop Exclusion NG 3) | µM | 0.00582 |
| AAAUAAAUUGAAGGAUAUGACCCUCGAGGUGACUAAAAGUCACCUCGAGGGUCAGAAGGUCGAGGAUCACCCGACCUAAAUAAA [#SharedSequence SLExNG1: 4-1] (puzzle (switch architecture): Small Loop Exclusion NG 1) | µM | 0.00716 |

Could you now look at the following sequence, please?
Which apparent KD of MS2 coat protein is listed for AAAGAUUUUUAAGGAUAUCAGUGGCAAAGCCACUGAGAAGGUGAGGAUCACCCACCUACGUGACCCUGGAAACAGGGUCACGAA [#SharedSequence - ExNG1-14] (puzzle (switch architecture): Exclusion NG 1) ? 0.0132

###

Catalogue of sequences with associated apparent KD of K4 kissing-loop reporter
Tested on: K4 kissing-loop RNA reporter
Assay: apparent KD of K4 kissing-loop reporter; higher = weaker reporter binding
Conditions: Eterna round: R107; input ligand: none
A number alone suffices; assume nM.

Please review the following examples before continuing.
| input.sequence | observation.type | observed.measurement |
| --- | --- | --- |
| GGAGGAGAAUAUGAUACCAGCAGAGAGAGAGAGGAAGUAUAGUGAUGUUAUAUGUGAGAAUGCCCUUGGCAGCAUAACAUGAAGG [whbob_SS_Theo_B_sa90] | apparent KD of K4 kissing-loop reporter | 211 |
| CGUGCCCAGCCGGAUACCAGUGACCCGCUGGGAACCGCGGGCCCAGAGUGAUGUUCGGGACACCCUUGGCAGCCGCCUGGGCGGC [#2 Same State - Theophylline B Attempt #12 (HarryS)] | apparent KD of K4 kissing-loop reporter | 462 |
| AGACCACAAAGUGGUCAGUGUUCGCUGCGGCGAGGACCGGUACGGCCGCCACUCGCGAGUGAUGUUCGCGAGCGCAGCGAACACA [Omei KL Tryp A Exc A v3] | apparent KD of K4 kissing-loop reporter | 92.7 |
| UGCGCUGCCUGAGGAUAUAGAAACGAGUGAUGUUCGUGGAUAAGAGCCAGUGAUGUUGGGUUAUUUCUAGAAGGCAGGCAAAGUA [Exclusion FMN B GF7] | apparent KD of K4 kissing-loop reporter | 117 |
| GUCCACACUGCAGGAUAUGGAGGUAUAGCGAGGGAGUGUGGAAGCACACCUCUGGCAGUGAUGUUGCCAGAAGGGCGGUGCGGCG [Masodionra] | apparent KD of K4 kissing-loop reporter | 119 |

Which apparent KD of K4 kissing-loop reporter is listed for UGAUACCAGACGGCCGCCACUCCUAGUGAUGUUAGGAACCUAAAAUAGCAUGUCAAAGACAUGCGGAGGACCGGGUCUGGUAUCU [TrypBX 23 #SwitchBubble #Palindromic #StaticStem] ? 104

Please give the result for AUCAUUAGUUCGGCCGCCACUCCAGUGAUGUUGGAGGGACGCAUAAUAUGCGCGCGGCUAACUAGGAGGACCGGGAACUUUAGGC [Maonce] too. 133

Please give the result for GUAGACAGACUGCAAGCCUAGUCUACAGACUAGGAUAUCAGGAAACUGAGAAGGAGUCUAGUUGCAGUGAUGUUGCAAGAAUAAU [KL-SSFMN-A24] too. 123

###

Catalogue of sequences with associated apparent KD of K4 kissing-loop reporter
Tested on: K4 kissing-loop RNA reporter;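 further: bound reporter read as fluorescence of individual clusters on recovered sequencing chips by microscopy, with normalized cluster intensities fitted with a binding model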
Assay: apparent KD of K4 kissing-loop reporter; higher = weaker reporter binding
Conditions: Eterna round: R107; input ligand: theophylline 20 uM
A number alone suffices; assume nM.

Please review the following examples before continuing.
| input.sequence | apparent KD of K4 kissing-loop reporter [nM] |
| --- | --- |
| AUUUAUUCGUACUUUCAGUGAUGUUGAUAACGAGGACCGGUACGGCCGCCACUCGAUUUGGCGAUUUUGUAUUUUUUAUUCUAUA [JR_SSTryptoA_Sub010] | 415 |
| AGGAUCCACCAGUGAUGUUGGAAAUACUCCAAGGAUAUGACGAAAGUCAGAAGGUGGUAGACUGGACAAAGUCCAGUCGGAUCCA [FmnA 28 #SwitchBubble #K4Early] | 486 |
| ACCAUCAAAGAUGGCCAGGACACCGCUGAUACCAGAGUGAAAACACUCCCUUGGCAGCAGGUGAGUGAUGUUCACAGUCCAUGGA [Omel KL Theo A SS B v2] | 901 |
| AUUUUGGUUGAAGGAUAUUCUCCCAUCGACGCGAUAAGAUACUUUGGAAGGUUUGCAGUGAUGUUGGAAGAAGGUCAAAGUUGUA [theeternabot_exclusion_KL_FMN_B_22] | 689 |

Reported apparent KD of K4 kissing-loop reporter for K4 kissing-loop RNA reporter, given AUACAUGUAAAUCUAUAUGUAUAAUGGAGCCGAGGACCGGUACGGCCGCCACUCGGAGUAAUCGGAGUGAUGUUCCGAAAUGUAC [KL-SSTryp-A sub13] ? 123

Please give the result for AGCGAUGUUUUCUCUAAGAGUGAUGUUUUUCGAGGACCGGUACGGCCGCCACUCGAAUAAAGAGUGUGGUAGUGAGCUGUUGACU [qqmullin] too. 442

Please give the result for CCAUUCAGUUACGAUACCAGUCUAAUAUAUUUGAUCAAAACCCUCGCCGAGUGAUGUUCGGACCCUUGGCAGCGUCUGGGACAGG [xxcetmullin] too. 379

Please give the result for GCGUUACUGAAAGGAUAUGAUCAACAUAGUGGUCAGUGAUGUUGGCAGGCCUCGUGGCGAGGUAGAUCAGAAGGUUCAUUACGAC [theeternabot_sameState_KL_FMN_B_11] too. 502

Please give the result for ACGAUCAUGGCAGGAUAUACGAAUGCAUUAGGGCUGCCAGUGAUGUUGGUGGACCGAGGACGUAGAGUAGAAGGGCCGACUUAAA [Leonmain] too. 86.4
